Every entry's value here was drawn from patent US20240000786A1.

Reported Fold Change (KD) values follow for various compounds
Measured On: rNOSIP (Homo sapiens, UniProt Q9Y314)
Construct: made in house; host or cells: E. coli BL21 (DE3)
Sequence (Q9Y314 with tags, fused parts or gaps): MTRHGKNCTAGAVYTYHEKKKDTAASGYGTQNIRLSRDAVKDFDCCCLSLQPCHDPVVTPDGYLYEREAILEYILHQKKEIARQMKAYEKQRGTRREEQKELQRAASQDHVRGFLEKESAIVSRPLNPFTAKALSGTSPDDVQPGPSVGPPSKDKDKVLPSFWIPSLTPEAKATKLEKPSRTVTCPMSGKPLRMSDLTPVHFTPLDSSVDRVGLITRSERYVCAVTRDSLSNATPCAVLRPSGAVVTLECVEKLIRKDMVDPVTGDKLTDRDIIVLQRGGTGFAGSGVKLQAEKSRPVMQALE
Test Summary: Isothermal titration calorimetry (ITC) of rNOSIP with small molecules / 18 mer iNOS peptide (PP2)
Assay type: binding
Protocol Conditions: ITC KD relative to iNOS-Peptide2 = 1
Please state the value as a number alone, without comment.

Example cases with answers are listed next.
Cc1ccc(-c2nnn(CC(=O)N(Cc3ccco3)C(C(=O)NC(C)(C)C)c3ccc(O)cc3)n2)cc1 (centres unmarked) = 0.976
CCN(c1ccccc1)S(=O)(=O)c1ccc(Cl)c(NC(=O)COC(=O)c2ccccc2SCC(=O)Nc2ccc3c(c2)OCO3)c1 = 0.899

Field Fold Change (KD) (entry `COc1cc(C)ccc1OCc1nc(C(=O)NCc2n[nH]c3c2CCC3)co1` ) reads 0.766

compound `CCCCN=c1scc(-c2ccc(O)c(C(N)=O)c2)n1N=Cc1cc(Br)c(O)c(OC)c1` , Fold Change (KD) observed: 0.989

Short answer for `NS(=O)(=O)c1ccc(CCNC(=O)CCCn2c(SCC(=O)c3ccc(Cl)c(Cl)c3)nc3ccsc3c2=O)cc1` : Fold Change (KD) was 0.956

----------
Measured On: rNOSIP (Homo sapiens, UniProt Q9Y314)
Construct: made in house; host or cells: E. coli BL21 (DE3)
Test Summary: Isothermal titration calorimetry (ITC) of rNOSIP with small molecules / 18 mer iNOS peptide (PP2)
Assay type: binding
Protocol Conditions: ITC 25° C.
Measured ΔH by item

These solved cases illustrate the format of a correct answer.
CCN(c1ccccc1)S(=O)(=O)c1ccc(Cl)c(NC(=O)COC(=O)c2ccccc2SCC(=O)Nc2ccc3c(c2)OCO3)c1 [MCULE-8094061955] = -9.07 ± 0.251 kcal/mol
CCCCN=c1scc(-c2ccc(O)c(C(N)=O)c2)n1N=Cc1cc(Br)c(O)c(OC)c1 [MCULE-8395438746] = -28.5 ± 0.694 kcal/mol
NS(=O)(=O)c1ccc(CCNC(=O)CCCn2c(SCC(=O)c3ccc(Cl)c(Cl)c3)nc3ccsc3c2=O)cc1 [MCULE-3765839647] = -27.3 ± 1.11 kcal/mol
COc1cc(C)ccc1OCc1nc(C(=O)NCc2n[nH]c3c2CCC3)co1 [MCULE-4640800528] = -8.54 ± 0.255 kcal/mol

ΔH measured on Cc1ccc(-c2nnn(CC(=O)N(Cc3ccco3)C(C(=O)NC(C)(C)C)c3ccc(O)cc3)n2)cc1 (centres unmarked) [MCULE-8469877005] = -29.3 ± 1.12 kcal/mol

----------
This section presents molecules with their documented ΔG values.
Measured On: rNOSIP (Homo sapiens)
Construct: made in house; host or cells: E. coli BL21 (DE3)
Test Summary: Isothermal titration calorimetry (ITC) of rNOSIP with small molecules / 18 mer iNOS peptide (PP2)
Type: binding
Protocol Conditions: ITC 25° C.
The figure you give is taken to be in kcal/mol; do not add the unit.

Example molecules with recorded ΔG:
COc1cc(C)ccc1OCc1nc(C(=O)NCc2n[nH]c3c2CCC3)co1 [MCULE-4640800528] = -8.70
NS(=O)(=O)c1ccc(CCNC(=O)CCCn2c(SCC(=O)c3ccc(Cl)c(Cl)c3)nc3ccsc3c2=O)cc1 [MCULE-3765839647] = -7.5
CCN(c1ccccc1)S(=O)(=O)c1ccc(Cl)c(NC(=O)COC(=O)c2ccccc2SCC(=O)Nc2ccc3c(c2)OCO3)c1 [MCULE-8094061955] = -8.61
CCCCN=c1scc(-c2ccc(O)c(C(N)=O)c2)n1N=Cc1cc(Br)c(O)c(OC)c1 [MCULE-8395438746] = -8.55

// Cc1ccc(-c2nnn(CC(=O)N(Cc3ccco3)C(C(=O)NC(C)(C)C)c3ccc(O)cc3)n2)cc1 (centres unmarked) [MCULE-8469877005] : ΔG value = -8.56
